SYSTEM UNDER TEST: BCL-2 (Homo sapiens (Human))
Sequence (P10415 1-211): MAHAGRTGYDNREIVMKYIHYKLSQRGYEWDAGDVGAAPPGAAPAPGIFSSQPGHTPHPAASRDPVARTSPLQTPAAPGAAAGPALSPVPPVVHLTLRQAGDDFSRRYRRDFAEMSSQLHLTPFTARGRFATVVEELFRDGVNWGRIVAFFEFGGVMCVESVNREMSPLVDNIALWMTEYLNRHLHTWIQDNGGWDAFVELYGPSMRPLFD
EXPERIMENT DESCRIPTION: Protein-protein interaction assay BCL-2/Bad BH3 peptide (BCL-2 assay), TR-FRET
Type: binding
ASSAY CONDITIONS: BCL-2/Bad BH3 peptide TR-FRET; median
I'd appreciate it if you could supply IC50 values for the items below.

Worked cases, answers included:
What IC50 value was documented for this molecule, Cc1nn(C)c2c1-c1c(F)ccc3c(CCCOc4cccc5ccccc45)c(C(=O)O)n(c13)C/C=C\COC2 (racemic) [Example 9] ?
> 20 µM

Same question for CCc1nn(C)c2c1-c1c(F)ccc3c(CCCOc4ccc(F)c5ccccc45)c(C(=O)O)n(c13)CCCCOC2 (single isomer, unassigned; enantiomer 1) [Example 42] please.
> 20 µM

Same question for CCc1c2c(nn1C)COCCCCn1c(C(=O)O)c(CCCOc3cc(C)c(Cl)c(C)c3)c3ccc(F)c-2c31 (racemic) [Example 31] please.
> 20 µM

Same question for Cc1nn(C)c2c1-c1c(F)ccc3c(CCCOc4cccc5ccccc45)c(C(=O)O)n(c13)CCCCOC2 (racemic) [Example 10] please.
> 20 µM

Same question for Cc1c2c(nn1C)COC/C=C\Cn1c(C(=O)O)c(CCCOc3cccc4ccccc34)c3ccc(F)c-2c31 (racemic) [Example 1] please.
> 20 µM

Working through the 7 molecules below one at a time, give IC50 for each.
1. Cc1c2c(nn1C)COCCCCn1c(C(=O)O)c(CCCOc3ccc(F)c4ccccc34)c3ccc(F)c-2c31 (single isomer, unassigned; enantiomer 1) [Example 16]
2. CCc1c2c(nn1C)COCCCCn1c(C(=O)O)c(CCCOc3cccc4cc(F)ccc34)c3ccc(F)c-2c31 (single isomer, unassigned; enantiomer 1) [Example 24]
3. Cc1c2c(nn1C)CNCCCCn1c(C(=O)O)c(CCCOc3cccc4ccccc34)c3ccc(F)c-2c31 (single isomer, unassigned; enantiomer 1) [Example 48]
4. Cc1cc(OCCCc2c(C(=O)O)n3c4c(c(F)ccc24)-c2c(C)nn(C)c2COCCCC3)cc(C)c1Cl (racemic) [Example 36]
5. Cc1nn(C)c2c1-c1c(F)ccc3c(CCCOc4cccc5c4CCC5)c(C(=O)O)n(c13)CCCCOC2 (racemic) [Example 35]
6. CCc1nn(C)c2c1-c1c(F)ccc3c(CCCOc4cccc5ccccc45)c(C(=O)O)n(c13)CCCCOC2 (racemic) [Example 37]
7. CCc1c2c(nn1C)CN(C)CCCCn1c(C(=O)O)c(CCCOc3cccc4c3CCCC4)c3ccc(F)c-2c31 (racemic) [Example 52]

1: > 20 µM; 2: > 20 µM; 3: > 20 µM; 4: > 20 µM; 5: > 20 µM; 6: > 20 µM; 7: > 20 µM

All values here come from patent US11286263B2.
